System: BT-549
Assay: NCI tumour cell line growth inhibition, 48 h
The source made the active and inactive calls. Rule as the data show it: active = GI50 up to about 1.1 µM and inactive = higher.
Quick list: GI50 per entry.

Would you please look over these solved cases?
CC(C)(C)C1=CC(=C(c2ccc(-c3c4nc(c(-c5ccc(C(=C6C=C(C(C)(C)C)C(=O)C(C(C)(C)C)=C6)c6cc(C(C)(C)C)c(O)c(C(C)(C)C)c6)cc5)c5ccc([nH]5)c(-c5ccc(C(=C6C=C(C(C)(C)C)C(=O)C(C(C)(C)C)=C6)c6cc(C(C)(C)C)c(O)c(C(C)(C)C)c6)cc5)c5nc(c(-c6ccc(C(=C7C=C(C(C)(C)C)C(=O)C(C(C)(C)C)=C7)c7cc(C(C)(C)C)c(O)c(C(C)(C)C)c7)cc6)c6ccc3[nH]6)C=C5)C=C4)cc2)c2cc(C(C)(C)C)c(O)c(C(C)(C)C)c2)C=C(C(C)(C)C)C1=O; > 100 µM (inactive)
CC1=C(C)C(=O)C2=C(OCCO2)C1=O; 22.8 µM (inactive)
C=C1C(=O)[C@@]23CC[C@@H]4[C@@]5(C)CCC[C@@]4(OC5=O)[C@@]2(C)CC[C@@H]1C3; 1.3 µM (inactive)
CN1CCc2c([nH]c3ccccc23)C1; > 100 µM (inactive)
CCOC(=O)c1cn(-c2ccc([N+](=O)[O-])cc2)c(=S)n2c1nc1ccccc12; 35 µM (inactive)

Inquiry: Please give the measured GI50 for this compound: O=C1CCC(=O)N1CNc1ccc2c(c1)S(=O)(=O)c1ccccc1O2
Reply text: > 100 µM (inactive)

Inquiry: Follow-up item: c1c[nH]c(CN2CCN(Cc3ncc[nH]3)CC2)n1
Reply text: > 100 µM (inactive)

Inquiry: Follow-up item: CSc1ncc2c(C#N)c3sc4ccccc4n3c(=O)c2n1
Reply text: > 100 µM (inactive)

---

Tested on: SN12C
Test: NCI tumour cell line growth inhibition, 48 h
Calls of active or inactive are those of the source. No stated cut-off is given here; in the data, active = GI50 up to about 1.1 µM and inactive = higher.
Endpoint: GI50

COC1(OC)C=CC2C1C1C=CC2C1(OC)OC (stereo not given); > 100 µM (inactive)
Nc1nc(N)c2cc(Sc3cccc(C(F)(F)F)c3)ccc2n1; 0.729 µM (active)
O=[N+]([O-])C1=Cc2c(O)ccc(O)c2C2OC=CC12 (stereo not given); 18.2 µM (inactive)

Inquiry: SN12C / GI50 / COc1ccccc1N1C(=O)/C(=C\c2cccc(Oc3ccccc3)c2)SC1c1ccccc1 (stereo not given) : value?
Reply text: 30.2 µM (inactive)

Inquiry: Follow-up item: CN(C)CCOC1(Cc2ccc(Cl)cc2Cl)CCC(C(C)(C)C)CC1 (stereo not given)
Reply text: 1.65 µM (inactive)

Inquiry: Follow-up item: CSc1ncc2c(C#N)c3sc4ccccc4n3c(=O)c2n1
Reply text: > 100 µM (inactive)

---

System: UACC-257
Assay: NCI tumour cell line growth inhibition, 48 h
Calls of active or inactive are those of the source. No stated cut-off is given here; in the data, active = GI50 up to about 1.1 µM and inactive = higher.
Endpoint: GI50

Would you please look over these solved cases?
N#Cc1nnc2ccccc2c1N; > 100 µM (inactive)
C/C(COc1ccccc1)=N\NC(N)=S; > 100 µM (inactive)
O=c1c2cnccc2cc2c3ccccc3ccn12; > 100 µM (inactive)
O=C1/C(=C/c2cccs2)NC(=S)N1CN1CCOCC1; 29 µM (inactive)

Inquiry: Please give the measured GI50 for this molecule: CCCCOC(=O)Nc1ccc(S(=O)(=O)Nc2c(Cl)cccc2Cl)cc1
Reply text: 35.6 µM (inactive)

Inquiry: Follow-up item: C[C@H]1/C(=C/C(=O)OCCN(C)C)CC[C@H]2[C@H]1C(=O)C[C@H]1C(C)(C)[C@@H](O)CC[C@]21C
Reply text: > 100 µM (inactive)

Inquiry: Follow-up item: C[C@]12CCc3nonc3C1CC[C@@H]1C2CC[C@@]2(C)C1CC[C@@H]2O (stereo partly specified)
Reply text: > 100 µM (inactive)

Inquiry: Follow-up item: O=C(Nc1ccc(Cl)cc1)NS(=O)(=O)c1coc2cc(F)ccc2c1=O
Reply text: > 100 µM (inactive)

Inquiry: Follow-up item: CC(C)(C)N/C(N)=N/C#N
Reply text: > 100 µM (inactive)

Inquiry: Follow-up item: CC1=NC(=Cc2ccc(Cl)cc2)C(=O)N1n1c(-c2ccccc2)nc2ccccc2c1=O
Reply text: 25 µM (inactive)

Inquiry: Follow-up item: CCOc1cc2cnc3c4cc(OC)c(OC)cc4ccc3c2cc1OC
Reply text: > 100 µM (inactive)

The origin of these recorded values is ChEMBL document CHEMBL1201862.
